Target: T1, Sul7s E33A (Sulfolobus islandicus Rey15A, UniProt F0NBY5 1-59, E33A)
T1 sequence: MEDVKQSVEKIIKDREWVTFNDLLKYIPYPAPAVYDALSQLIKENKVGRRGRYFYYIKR
Assay: BLI; BLI: 50 mM Tris-Cl pH 7.5, 100 mM NaCl, 1 mM EDTA, 0.02% Tween-20, 30 C; NMR: 20 mM potassium phosphate pH 7.0, 30 mM NaCl, 0.02% NaN3, 298 K
Details: protein: recombinant; tags: untagged; label: 5'-biotin
readout label: pKd
Keep in mind that pKd stands for -log10 of concentration in molar terms.

Query: State its pKd: TTTCTACCCTTTGGTGCTAATGCCCATACT (ssDNA) [S30 (S30-F)]
Response: 5.92

The values you see were collected from paper PMC8998557.
